system: DU-145 prostate; assay: NCI tumour cell line growth inhibition, 48 h
Listed here are compounds together with their documented TGI.

compound	target	readout kind	observed measurement
Cc1cc(C)c2c(=O)cc(-c3cccc(Cl)c3)[nH]c2n1	DU-145 prostate	TGI	> 100 µM
CC(NC(=O)CNP(=O)(c1ccccc1)c1ccccc1)C(=O)NC(Cc1ccccc1)C(=O)OCc1ccccc1 (stereo not given)	DU-145 prostate	TGI	> 100 µM
CC(=O)/C=C/CCC(=O)/C=C/C(=O)OC(CCC(=O)/C=C/C(=O)O)CC(C)=O (stereo not given)	DU-145 prostate	TGI	> 100 µM
CCN(CC)CCn1c(=O)c2ccccc2n2c3c(=O)n(C)c(=O)n(C)c3nc12	DU-145 prostate	TGI	4.47 µM

Notebook: O=C1Nc2ccccc2S/C1=C\c1ccc(C(F)(F)F)cc1 , TGI read as > 100 µM

Notebook: CCC(CC)COC(=O)[C@H](C)N[P@](=O)(OC[C@H]1O[C@@](C#N)(c2ccc3c(N)ncnn23)[C@H](O)[C@@H]1O)Oc1ccccc1 , TGI read as > 100 µM

Notebook: CS(=O)(=O)Nc1ccc(Nc2cc[nH]c3ccc4nccc4c23)cc1 , TGI read as 22.2 µM

Notebook: N#CCCN(CCNc1ccccc1)C(=O)Nc1ccc(NC(=O)N(CCC#N)CCNc2ccccc2)cc1 , TGI read as > 100 µM

Notebook: CCCCN(CCCC)CC(O)c1ccc(OCc2ccccc2)c2ccccc12 (stereo not given) , TGI read as 22.6 µM

Notebook: C[C@H](CCC(=O)O)[C@H]1CC[C@H]2[C@@H]3[C@@H](O)C[C@@H]4C[C@H](O)CC[C@]4(C)[C@H]3CC[C@]12C , TGI read as > 100 µM
